Entries and their TGI values follow.
# Tested on: SF-539 CNS
# EXPERIMENTAL_DETAILS: NCI tumour cell line growth inhibition, 48 h

Solved cases below.
O=S(=O)(CCCCl)SCCCCl    53.4 µM
CCOC(=O)c1cc(C#N)[nH]c1-c1ccsc1    77.1 µM
Clc1ccc(-c2nnc(-c3c(Cl)c(Cl)c(Cl)c(Cl)c3-c3nc4ccccc4[nH]3)o2)cc1    > 100 µM
O=C(O)C1=NN(c2ccc(S(=O)(=O)O)cc2)C2(C1)SCC(=O)N2c1nc2ccccc2s1 (stereo unspecified)    > 100 µM
COc1ccc(C(c2cc3c(cc2O)OCO3)N2CCOCC2)cc1OC (stereo unspecified)    28.3 µM

Please find the next molecule below.
// query TGI value for entry CCOC(=O)c1cc2cc(C)cc(C(=O)c3ccc([N+](=O)[O-])cc3)c2[nH]1
> 100 µM

* * *

// reported TGI for each item listed
# Tested on: MALME-3M melanoma
# EXPERIMENTAL_DETAILS: NCI tumour cell line growth inhibition, 48 h
The figure you give is taken to be in µM; do not add the unit.

CC(C)C1COC(c2ccc3ccccc3c2-c2c(O[Si](C)(C)C(C)(C)C)ccc3ccccc23)=N1 (stereo not given)    32.9
COc1cnc2c(c1)C(=O)c1c-2n(CCCNC(C)C)c(=O)c2cc([N+](=O)[O-])ccc12    0.356
O=C(O)c1ccccc1Nc1ccc2nnc(-c3ccncc3)n2n1    26.3

Could you now consider this next molecule?
For the molecule shown here, C[CH2][Sn]([CH2]C)([O]C(=O)c1ccc(F)cc1)[O][Sn]([CH2]C)([CH2]C)[O]C(=O)c1ccc(F)cc1 , give the reported TGI.
32

* * *

# Tested on: MDA-MB-231 breast
# EXPERIMENTAL_DETAILS: NCI tumour cell line growth inhibition, 48 h; in the data active means GI50 below about 0.43 µM; inactive means the rest
Outcomes you can answer with include only these: yes for active, no for inactive

Cc1nc2sc(C(=O)Nc3cccc(Br)c3)c(N)c2cc1C(O)c1ccccc1 (stereo not given)    no
COc1ccc2nc3ccccc3c(NCc3ccc(C)cc3)c2c1    no
CCOCCOC[C@H]1CCCN(c2ccnc3sc(C(N)=O)c(N)c23)C1    no
Cc1cc2nc(C(Cl)Cl)nc(-c3ccccc3)n2n1    no
COc1cc(C)c(NC(=O)CN(C)C)cc1Nc1nc(Nc2cccc(F)c2C(N)=O)c2cc[nH]c2n1    no

Short answer needed: outcome of this test for CCCCCCNCCCNc1c2ccccc2nc2cccc([N+](=O)[O-])c12 ?
yes

Could you kindly confirm the outcome this assay logged for O=S(=O)(Nc1ccccn1)c1ccc(N=Nc2ccc(O)c3ncccc23)cc1 ?
no

* * *

# Test system: PC-3 prostate
# EXPERIMENTAL_DETAILS: NCI tumour cell line growth inhibition, 48 h
QUANTITY_NAME: TGI

Solved cases (5 shown):
Nc1ccc(-c2ccc(-c3nc4cc(Cl)c(Cl)cc4[nH]3)cc2)cc1    > 61.2 µM
CSC1(CC(=O)N2CCCCC2)C(=O)Nc2ccccc21 (stereo unspecified)    > 100 µM
Oc1c(I)cc(I)cc1CN(Cc1ccccn1)Cc1ccccn1    20.6 µM
CC(=O)C1=C(O)CCC1=O    > 100 µM
O=c1/c(=C/c2ccc([N+](=O)[O-])o2)sc2n1[C@@H](c1ccc3c(c1)OCO3)C=C(c1cc(F)c(Cl)cc1Cl)N=2    > 100 µM

From here, focus on the item given below.
Look up TGI for this molecule: CCC1=[N+]([O-])C(C)(C)NC1(C)C
> 10 µM

* * *

# Test system: M14 melanoma
# EXPERIMENTAL_DETAILS: NCI tumour cell line growth inhibition, 48 h
Examples of compounds with documented TGI follow.

COc1cc(N2CCC(N3CCN(C)CC3)CC2)ccc1Nc1ncc(Cl)c(Nc2ccccc2S(=O)(=O)C(C)C)n1    2.51 µM
O=C(O)c1ccccc1Nc1ccc2nnc(-c3ccncc3)n2n1    40.9 µM
CN(C)c1nc(=NCc2cccnc2)ss1    > 10 µM
COc1ccc2c(c1)CC[C@@H]1[C@@H]2CC[C@]2(C)C(=O)/C(=C/c3ccc(O)c(OC)c3)C[C@@H]12    > 100 µM
COc1ccc(C2CC(=O)c3c(O)c(OC)c(OC)c(OC)c3O2)cc1O (stereo not given)    > 100 µM

Requested read-out: TGI. Entry: O=C(N/N=C(\c1nc2ccc(Cl)cc2[nH]c1=O)C(O)c1ccccc1Cl)c1ccncc1 (stereo not given)
> 100 µM

# input compound: COC(=O)C1(C(=O)OC)CC2=C(S(=O)(=O)c3ccccc3)C[C@H](C#N)[C@H]2C1 ; wanted: its TGI
> 100 µM

Requested read-out: TGI. Entry: COC(=O)[C@@H]1OC(C)(c2ccccc2)O[C@H]1C(=O)OC
> 100 µM

What value of TGI has been recorded for this entry: O=c1[nH]c2cc([N+](=O)[O-])ccc2nc1/C=C(\O)c1ccc(Cl)cc1
28.4 µM

Name the recorded TGI for CCCc1c(C(=O)OCC)[nH]c(C(=O)CCC(=O)c2[nH]c(C(=O)OCC)c(CCC)c2C(=O)OCC)c1C(=O)OCC .
> 100 µM

* * *

# System: HCC-2998 colon
# EXPERIMENTAL_DETAILS: NCI tumour cell line growth inhibition, 48 h
QUANTITY_NAME: GI50

Study these solved cases before continuing.
COc1cc(C)c(NC(=O)CN(C)C)cc1Nc1nc(Nc2cccc(F)c2C(N)=O)c2cc[nH]c2n1    0.621 µM
Cc1ccc(C2=NN(c3ccc(S(N)(=O)=O)cc3)C(c3cn(-c4ccccc4)nc3-c3ccccc3)C2)cc1 (stereo not given)    13.8 µM
O=S(=O)(Nc1ccccn1)c1ccc(N=Nc2ccc(O)c3ncccc23)cc1    3.73 µM
COc1ccc2nc3ccccc3c(NCc3ccc(C)cc3)c2c1    1.73 µM

Next up:
Recorded GI50 for c1ccc2c3c(ccc2c1)-c1c(ccc2c(NCCCCN4CCCCC4)cccc12)C3 , please?
1.63 µM

* * *

Readings of TGI for the listed compounds
# Tested on: MDA-MB-435
# EXPERIMENTAL_DETAILS: NCI tumour cell line growth inhibition, 48 h
Could you give me the number in µM? Just the number is fine.

The cases that follow already have their TGI on record.
C/C=C/C1=CN2C(=O)c3cc(OC4OC(C)C(NC)C(C)(O)C4O)c(C)c(O)c3N=C[C@@H]2C1 (stereo not given in full)    0.286
COc1ccc(N=CN(C)C)c(C)c1    93.3
C=C1C(=O)O[C@H]2[C@H]1CC/C(COC(=O)NCc1cc(OC)cc(OC)c1)=C\CC[C@@]1(C)O[C@@H]21    4.11

Consider the record given below.
Form field: reported TGI of O=c1[nH]c2cc([N+](=O)[O-])ccc2nc1/C=C(\O)c1ccc(Cl)cc1
45.2

* * *

# System: TK-10 renal
# EXPERIMENTAL_DETAILS: NCI tumour cell line growth inhibition, 48 h; in the data active = GI50 below about 0.43 µM; inactive = the rest
Respond using exactly one of the listed classes: active, inactive

Completed entries (count: 10):
C[CH2][Sn]([CH2]C)([O]C(=O)c1ccc(F)cc1)[O][Sn]([CH2]C)([CH2]C)[O]C(=O)c1ccc(F)cc1    inactive
COc1ccc2nc3ccccc3c(NCc3ccc(C)cc3)c2c1    inactive
Fc1cccc(-c2[nH]nc3nc(Nc4cccnc4)sc23)c1    inactive
COc1cc2c(cc1OCCCN1CCN(c3ncnc4ccccc34)CC1)N=CC1CCCN1C2=O (stereo not drawn)    active
CC(C)(C)c1cc(-c2nc3c(F)c(F)c(F)c(F)c3[nH]2)cc(C(C)(C)C)c1O    inactive
Cc1c(-c2nnc(-c3cc(Cl)c(Cl)cc3Cl)o2)nnn1-c1ccnc2c(C(F)(F)F)cccc12    inactive
COC(C)(C)[C@H](O)C(O)CC(C)[C@@H]1CCC23CC12CCC1[C@@]2(C)CCC(OC(C)=O)C(C)(C)C2CC(OC2OC(COC(C)=O)C(O)C(O)C2O)[C@]13C (stereo partly drawn)    inactive
COc1cc(C)c(NC(=O)CN(C)C)cc1Nc1nc(Nc2cccc(F)c2C(N)=O)c2cc[nH]c2n1    inactive
Oc1c(CN2CCN(c3ccccc3F)CC2)cc(Br)c2cccnc12    inactive
CCN(CC)CC[n+]1cc2cc(OC)c(OC)cc2c2ccc3cc4c(cc3c21)OCO4    inactive

Please state the recorded outcome for this compound: C[C@@H]1OCC2(CCN(c3cnc(Sc4ccnc(N)c4Cl)c(N)n3)CC2)[C@@H]1N
active

// outcome(item) with item = CN1CCN(CC(=O)N2c3cccc4cccc(c34)N(C(=O)CN3CCN(C)CC3)C2c2cn(-c3ccccc3)nc2-c2cccc([N+](=O)[O-])c2)CC1
inactive

Would you mind telling me which call this test gave CCN1CCN(c2ccc(Nc3ncc4ccc5ncn(C(C)C)c5c4n3)nc2)CC1 ?
active
